# Tested target: Estrogen receptor (Homo sapiens)
# Measurement protocol: OT_ERa_GFPERaERE_0120: Odyssey Thera (OT) 2-hour HeLa Transcription Induction Assay for Estrogen Receptor (AID 2283382)
The source made the active and inactive calls. Rule for the calls: active = hit-call score of the fitted dose curve at least 0.9, where 1 is the maximum; inconclusive = response in the unintended direction; inactive = score below 0.9.
Experimental readout: AC50

> print(dat)
                                    compound  experimental.readout          observed
 1  CC(=O)OCCC(C)CC(C)(C)C (stereo not given)                  AC50          inactive
 2  CC1COc2ccccc2N1C(=O)C(Cl)Cl (stereo not given)                  AC50          inactive
 3                              NCCCN1CCOCC1                  AC50          inactive
 4                                CC(C)(N)CO                  AC50          inactive
 5                              Cc1ccc(S)cc1                  AC50          inactive
 6                          CC(=O)OCCOC(C)=O                  AC50          inactive
 7                           CCCCc1ccc(N)cc1                  AC50          inactive
 8  CCCCCCCCCCCCCCCC(=O)OC[C@H](O)[C@H]1OC(=O)C(O)=C1O                  AC50          inactive
 9                       NC(=O)Nc1ccc(Cl)cc1                  AC50          inactive
10                         CCCCOCCOCCOCCOCCO                  AC50          inactive
11  CCN(CC)c1ccc2c(-c3ccccc3C(=O)O)c3ccc(=[N+](CC)CC)cc-3oc2c1                  AC50          inactive
12                             OCCOCCOCCOCCO                  AC50          inactive
13                    O=Nc1ccc(Nc2ccccc2)cc1                  AC50  28.2 µM (active)
14                     c1ccc(CCCc2ccccn2)cc1                  AC50          inactive
15                               CCCCCCCCC=O                  AC50          inactive

###

# Read-out: serum amyloid A (SAA), SAA1 (gene 6288)
# Measurement protocol: BSK_CASM3C_SAA: BioMAP Diversity Plus: CASM3C Assay for serum amyloid A (SAA) Biomarker Activity (AID 2283049);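 note: SAA protein level quantified by ELISA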
# Experimental context: primary human coronary artery smooth muscle cells; actives raise or lower the signal
The source made the active and inactive calls. Rule for the calls: active = hit-call score of the fitted dose curve at least 0.9, where 1 is the maximum; inactive = score below 0.9.
Classes used: active, inactive

> print(dat)
                                   compound       cat
1  O=C1OC2(c3cc(Br)c(O)c(Br)c3Oc3c2cc(Br)c(O)c3Br)c2c(Cl)c(Cl)c(Cl)c(Cl)c21  inactive
2                      O=C1CCCCCCCCCCCCCCO1    active
3                      CC(C)c1ccc(C(C)C)cc1  inactive
4  CCCCC(CC)COCCC#N (configuration not stated)  inactive
5          O=[N+]([O-])c1cc(C(F)(F)F)ccc1Cl  inactive
6  CC(=O)OCCC(C)CC(C)(C)C (configuration not stated)  inactive
7  CCCCCCCCCCCCCCCCCC(=O)OCC(CC)CCCC (configuration not stated)  inactive

###

# Read-out: Human Leukocyte Antigen - DR isotype (HLADR), HLA-DRA (gene 3122)
# Measurement protocol: BSK_3C_HLADR: BioMAP Diversity Plus: 3C Assay for Human Leukocyte Antigen - DR isotype (HLADR) Biomarker Activity (AID 2283019)
# Experimental context: primary human endothelial cells (HUVEC); actives raise or lower the signal
Calls of active or inactive are those of the source. How the source made its calls: active means hit-call score of the fitted dose curve at least 0.9, where 1 is the maximum; inactive means score below 0.9.
Classes used: class 1 (active), class 0 (inactive)

> print(dat)
                          chemical.structure      cat
 1  C[C@H]1C[C@@H]2[C@H]([C@@H](O)C[C@@]3(C)[C@H]2CC[C@]3(O)C(=O)CO)[C@@]2(C)C=CC(=O)C=C12  class 0
 2                  CCn1c2ccccc2c2cc(N)ccc21  class 1
 3                         CCCCC/C=C/C=C/C=O  class 1
 4                     CCc1c(C)cc(N)c(CC)c1N  class 0
 5  Cc1cc(C2(c3cc(C)c(O)cc3C)OS(=O)(=O)c3ccccc32)c(C)cc1O  class 0
 6                      CC(C)c1ccc(C(C)C)cc1  class 1
 7                         CCC(=O)OCc1ccccc1  class 0
 8                      O=C1CCCCCCCCCCCCCCO1  class 1
 9  Cc1ccc(Nc2ccc(O)c3c2C(=O)c2ccccc2C3=O)cc1  class 0
10                      C=C[Si](OCC)(OCC)OCC  class 0
11  O=C(O)c1cn(-c2ccc(F)cc2)c2cc(N3CCNCC3)c(F)cc2c1=O  class 0
12                              CCCCCCCCCC=O  class 1
13                 Nc1cc([N+](=O)[O-])ccc1Cl  class 0

###

# Measurement protocol: CCTE_Harrill_HTTr_Viability_MCF7: CCTE's 6-hour Cell Viability Assessment for the High-Throughput Transcriptomics (HTTr) Platform, in MCF-7 cells cultured in DMEM + 10% fetal bovine serum, Harrill Lab (AID 2284010)
Active and inactive are the calls of the source. The calls were made as follows: active = hit-call score of the fitted dose curve at least 0.9, where 1 is the maximum; inactive = score below 0.9.
Experimental readout: outcome

> print(dat)
                                    molecule  experimental.readout  observed
 1  CC(=O)O[C@]1(C(C)=O)CC[C@H]2[C@@H]3C[C@H](C)C4=CC(=O)CC[C@]4(C)[C@H]3CC[C@@]21C               outcome  inactive
 2                    O=Nc1ccc(Nc2ccccc2)cc1               outcome  inactive
 3   CC1=CCC(O)(C(C)C)CC1 (stereo not drawn)               outcome  inactive
 4       c1ccc2sc(SN(C3CCCCC3)C3CCCCC3)nc2c1               outcome  inactive
 5               C=CCOc1nc(OCC=C)nc(OCC=C)n1               outcome  inactive
 6  C#C[C@]1(O)CC[C@H]2[C@@H]3CCC4=Cc5oncc5C[C@]4(C)[C@H]3CC[C@@]21C               outcome  inactive
 7                     Nc1ccc(S(N)(=O)=O)cc1               outcome  inactive
 8                       O=C(O)CCCCCCCC(=O)O               outcome  inactive
 9           Cc1c(N(C)C)c(=O)n(-c2ccccc2)n1C               outcome  inactive
10                             Cc1cccc(C)c1C               outcome  inactive
11  CC1CC(OC(=O)c2ccccc2O)CC(C)(C)C1 (stereo not drawn)               outcome  inactive
12  O=C1C(c2[nH]c3ccc(S(=O)(=O)O)cc3c2O)=Nc2ccc(S(=O)(=O)O)cc21               outcome  inactive
13          CC1(C)[C@H]2CC[C@]1(C)[C@H](O)C2               outcome  inactive

###

# Tested target: Nuclear receptor subfamily 1 group I member 2 (Homo sapiens) (UniProt O75469)
# Sequence (O75469 whole entry, looked up): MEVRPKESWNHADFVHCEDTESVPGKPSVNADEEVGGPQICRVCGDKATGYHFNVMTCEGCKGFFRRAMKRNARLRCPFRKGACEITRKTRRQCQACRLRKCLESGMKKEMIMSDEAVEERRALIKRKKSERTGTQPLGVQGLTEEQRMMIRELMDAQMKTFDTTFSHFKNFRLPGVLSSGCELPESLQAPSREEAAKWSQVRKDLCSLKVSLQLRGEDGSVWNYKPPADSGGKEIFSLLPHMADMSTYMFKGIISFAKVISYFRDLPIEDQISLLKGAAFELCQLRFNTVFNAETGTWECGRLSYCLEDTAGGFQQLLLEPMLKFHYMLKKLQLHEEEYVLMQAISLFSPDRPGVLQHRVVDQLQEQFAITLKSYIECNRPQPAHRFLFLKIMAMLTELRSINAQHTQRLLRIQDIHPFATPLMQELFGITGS
# Measurement protocol: ATG_PXR_TRANS: Attagene TRANS-FACTORIAL HepG2 Assay for human Pregnane X Receptor (PXR) (AID 2283008)
Inconclusive results are not listed. The source made the active and inactive calls. Rule for the calls: active = hit-call score of the fitted dose curve at least 0.9, where 1 is the maximum; inconclusive = response in the unintended direction; inactive = score below 0.9.
Experimental readout: AC50

> print(dat)
                                   molecule          observed
1                     CCCC/C=C\CCCCCCCCCC=O          inactive
2      CC(CCO)CCc1ccccc1 (stereo not drawn)  48.2 µM (active)
3              C=C(C)C(=O)Nc1ccc(Cl)c(Cl)c1  7.08 µM (active)
4                           CN(C)CCOCCN(C)C          inactive
5     CC(C)(COC(=O)c1ccccc1)COC(=O)c1ccccc1          inactive
6  O=C=NC1CCC(CC2CCC(N=C=O)CC2)CC1 (stereo not drawn)          inactive
7                        C=CC[N+](C)(C)CC=C          inactive
8             CCCC(C)C=O (stereo not drawn)          inactive
